Test system: HEPG2
Assay: Cytotoxicity screening, SRB assay, HEPG2
Format: cell-based, human
Conditions: Homo sapiens, HepG2, 48 h
OUTCOME_MEASURE: IC50 (mg/L)
Give bare numbers, in mg/L.

For each of the items listed, what is its IC50?
1. N#Cc1c(-c2cccs2)cc(-c2ccco2)nc1OCC(=O)N/N=C/c1ccc([N+](=O)[O-])cc1
2. CCOC(=O)COc1nc(-c2ccco2)cc(-c2cccs2)c1C#N
3. N#Cc1c(-c2cccs2)cc(-c2ccco2)nc1-c1c[nH]c2ccccc12
4. Nc1nn2c(-c3cccs3)cc(-c3ccco3)nc2c1/N=N/c1ccc([N+](=O)[O-])cc1

A:
1: 11.5; 2: 9; 3: 8.6; 4: 12

----------
Test system: T47D
Assay: Cytotoxicity screening, SRB assay, T47D
Format: cell-based, human
Conditions: Homo sapiens, T47D, 48 h
Friendly reminder: IC50 below 20 µg/mL is Condition met, at or above is Condition not met.

Illustrative cases are given below, each with its answer.
- Nc1nn2c(-c3cccs3)cc(-c3ccco3)nc2c1/N=N/c1ccc([N+](=O)[O-])cc1: Condition not met
- c1coc(-c2cc(-c3cccs3)n3nnnc3n2)c1: Condition met
- N#Cc1c(-c2cccs2)cc(-c2ccco2)nc1-c1c[nH]c2ccccc12: Condition not met

Switching to the query record.
Q: is_below(IC50, 20 µg/mL) for N#Cc1c(-c2cccs2)cc(-c2ccco2)nc1OCC(=O)NN ?
A: Condition not met
